Origin of the recorded values: the supplement of paper PMC13380429

- System: Caco-2
- assay method text: cell viability relative to DMSO; higher = less toxic
- setup conditions: 72 h; 1 nM
Listed here: items and their measured cell viability.
A complete answer gives the number and then names the unit.

Observe how each entry below is paired with its result.
Query string: Give the measured cell viability of CC[N+](CC)(CCCNC1=CC(=O)C(NCCC[N+](CC)(CC)Cc2ccccc2)=CC1=O)Cc1ccccc1 [benzoquinonium-dibromide] .
Result string: 94.5%

Query string: Which cell viability reading was recorded for the molecule CC(C)COc1ccc(CNC(=O)N(Cc2ccc(F)cc2)C2CCN(C)CC2)cc1 ?
Result string: 105%

Query string: Could you share which cell viability value was measured for COc1cc(N2CCC(N3CCN(C)CC3)CC2)ccc1Nc1ncnc(Nc2ccccc2S(=O)(=O)C(C)C)n1 ?
Result string: 102%

Query string: Look up cell viability for this molecule: Fc1ccc(-c2c3cccc(C(F)(F)F)c3nn2Cc2ccc(F)cc2Cl)cc1
Result string: 102%

Query string: I would be grateful if you could share the reported cell viability for COc1cccc(CCc2ccccc2OCC(CN(C)C)OC(=O)CCC(=O)O)c1 (stereo not drawn) [sarpogrelate] .
Result string: 92.1%

More entries:
Query string: Which cell viability value is on record for COc1cc2c(N3CCN(C(=O)Nc4ccc(OC(C)C)cc4)CC3)ncnc2cc1OCCCN1CCCCC1 ?
Result string: 113%

Query string: Suppose we examine the molecule COCCOc1ccc2c(c1)ncn2-c1ccc2cccc(N3CCC(N)CC3)c2n1 ; what cell viability value has been reported?
Result string: 94.1%

Query string: What value of cell viability has been recorded for this entry: Cc1ccnc(NC(=O)C(C)c2cccc(C(=O)c3ccccc3)c2)c1 (stereo not drawn)
Result string: 96.7%

###

- Tested on: Vero E6
- assay method text: cell viability relative to DMSO; higher = less toxic
- setup conditions: 72 h; 1000 nM
quantity: cell viability (%)
Your answer should be a plain number; it is taken to be in %.

Query string: Item: O=[N+]([O-])c1cn2c(n1)OC[C@@H](OCc1ccc(-c3ccc(OC(F)(F)F)cc3)nc1)C2 Test system: Vero E6 Read-out: cell viability Value: ?
Result string: 99

Query string: Tell me reported cell viability for C[C@]12CC[C@@H]3c4ccc(O)cc4C[C@@H](CCCCCCCCC[S+]([O-])CCCC(F)(F)C(F)(F)F)[C@H]3[C@@H]1CC[C@@H]2O (stereo partly drawn) , tested with Vero E6.
Result string: 96.9

Query string: Could you share what cell viability was measured for C=C[C@H]1CN2CC[C@H]1CC2C(OC(=O)OCC)c1ccnc2ccc(OC)cc12 (stereo in doubt) [quinine-ethyl-carbonate] , tested on Vero E6?
Result string: 107

Query string: Given the entry CCN1CCN(Cc2ccc(Nc3ncc(F)c(-c4cc(F)c5nc(C)n(C(C)C)c5c4)n3)nc2)CC1 , what cell viability was observed with Vero E6?
Result string: 77.9

Query string: Item: Cn1cc(C2=C(c3cn(CCCSC(=N)N)c4ccccc34)C(=O)NC2=O)c2ccccc21 [bisindolylmaleimide-IX] Test system: Vero E6 Read-out: cell viability Value: ?
Result string: 92.6

Query string: Recall the recorded cell viability for O=C(O)c1cc(=O)c2c(OCC(O)COc3cccc4oc(C(=O)O)cc(=O)c34)cccc2o1 with Vero E6 and state it.
Result string: 96.6

Query string: Under Vero E6: cell viability value of Clc1ccc2c(NCCNc3ccnc4cc(Cl)ccc34)ccnc2c1 ?
Result string: 94.5

Query string: Kindly state the measured cell viability obtained for NC(=O)C1=CN([C@@H]2O[C@H](COP(=O)(O)OP(=O)(O)OC[C@H]3O[C@@H](n4cnc5c(N)ncnc54)[C@H](OP(=O)(O)O)[C@@H]3O)[C@@H](O)[C@H]2O)C=CC1 with Vero E6.
Result string: 94.6

Next compound, please.
Query string: API: value(readout=cell viability, system=Vero E6) for record COc1cc(N2CCC(N3CCN(C)CC3)CC2)ccc1Nc1ncnc(Nc2ccccc2S(=O)(=O)C(C)C)n1
Result string: 90.9
